- Tested on: PDC 899932-113-R3-J6 complex spheroid viability;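 further: spheroids exposed to agents for seven days before readout; 100% = DMSO vehicle control wells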
- TEST_PROTOCOL: Anticancer human tumor 899932-113-R3-J6-PDC patient-derived melanoma cell line growth inhibition [RAS]
- SETUP_CONDITIONS: second compound 0.003 µM; first compound 0.1 µM; stronger effect = lower value
The entries below come with measured viability, T/C values attached.
Numeric answer only, unit % assumed.

Known results for molecules:
| MOLECULE | READOUT_LABEL | OBS_VALUE |
| --- | --- | --- |
| Cc1nc(N2CCC3(CC2)COC(C)C3N)c(CO)nc1Sc1ccnc(N)c1Cl (stereo unspecified) + CCn1c(-c2cc(N3CCN(C)CC3)cnc2C(C)OC)c2c3cc(ccc31)-c1csc(n1)CC(NC(=O)C1CC1C)C(=O)N1CCCC(N1)C(=O)OCC(C)(C)C2 | viability, T/C | 29.9 |
| CC(C)n1nc(-c2ccc3oc(N)nc3c2)c2c(N)ncnc21 + CCn1c(-c2cccnc2C(C)OC)c2c3cc(ccc31)N1CCOC(CC(NC(=O)C(C(C)C)N(C)C(=O)C3(F)CCN(C(=O)C#CC(C)(C)N(C)C)CC3)C(=O)N3CCCC(N3)C(=O)OCC(C)(C)C2)C1 | viability, T/C | 102 |
| Cc1nc(N2CCC3(CC2)COC(C)C3N)c(CO)nc1Sc1ccnc(N)c1Cl (stereo unspecified) + CCn1c(-c2cccnc2C(C)OC)c2c3cc(ccc31)N1CCOC(CC(NC(=O)C(C(C)C)N(C)C(=O)C3(F)CCN(C(=O)C#CC(C)(C)N(C)C)CC3)C(=O)N3CCCC(N3)C(=O)OCC(C)(C)C2)C1 | viability, T/C | 96.8 |
| CC1(O)CCCC1n1c(=O)c(C(F)F)cc2cnc(NC3CCN(S(C)(=O)=O)CC3)nc21 (stereo unspecified) + CCn1c(-c2cccnc2C(C)OC)c2c3cc(ccc31)N1CCOC(CC(NC(=O)C(C(C)C)N(C)C(=O)C3(F)CCN(C(=O)C#CC(C)(C)N(C)C)CC3)C(=O)N3CCCC(N3)C(=O)OCC(C)(C)C2)C1 | viability, T/C | 83 |
| C=CC(=O)Nc1cc(Nc2nccc(-c3cn(C)c4ccccc34)n2)c(OC)cc1N(C)CCN(C)C + CCn1c(-c2cccnc2C(C)OC)c2c3cc(ccc31)N1CCOC(CC(NC(=O)C(C(C)C)N(C)C(=O)C3(F)CCN(C(=O)C#CC(C)(C)N(C)C)CC3)C(=O)N3CCCC(N3)C(=O)OCC(C)(C)C2)C1 | viability, T/C | 104 |

What value of viability, T/C has been reported for the following molecule? CCC(CC)c1cc(NC2CCC(N)C2)n2nccc2n1 (stereo unspecified) + CCn1c(-c2cccnc2C(C)OC)c2c3cc(ccc31)N1CCOC(CC(NC(=O)C(C(C)C)N(C)C(=O)C3(F)CCN(C(=O)C#CC(C)(C)N(C)C)CC3)C(=O)N3CCCC(N3)C(=O)OCC(C)(C)C2)C1 85.5

What value of viability, T/C has been reported for the following molecule? O=C(c1ccc(F)c(F)c1Nc1ccc(I)cc1F)N1CC(O)([C@@H]2CCCCN2)C1 + CCn1c(-c2cc(N3CCN(C)CC3)cnc2C(C)OC)c2c3cc(ccc31)-c1csc(n1)CC(NC(=O)C1CC1C)C(=O)N1CCCC(N1)C(=O)OCC(C)(C)C2 1.41

What value of viability, T/C has been reported for the following molecule? CC(C)NCC(C(=O)N1CCN(c2ncnc3c2C(C)CC3O)CC1)c1ccc(Cl)cc1 (stereo unspecified) + CCn1c(-c2cccnc2C(C)OC)c2c3cc(ccc31)N1CCOC(CC(NC(=O)C(C(C)C)N(C)C(=O)C3(F)CCN(C(=O)C#CC(C)(C)N(C)C)CC3)C(=O)N3CCCC(N3)C(=O)OCC(C)(C)C2)C1 106
